Each recorded value in this set is attributed to the supplement of paper PMC8728848.

Would you kindly list glycan array binding signal (z-score) for each of these binders?
- test-target: Gal(b1-4)GlcNAc(b1-3)Gal(b1-4)GlcNAc(b1-3)Gal(b1-4)GlcNAc(b1-2)[Gal(b1-4)GlcNAc(b1-3)Gal(b1-4)GlcNAc(b1-3)Gal(b1-4)GlcNAc(b1-6)]Man(a1-6)[Gal(b1-4)GlcNAc(b1-3)Gal(b1-4)GlcNAc(b1-3)Gal(b1-4)GlcNAc(b1-2)Man(a1-3)]Man(b1-4)GlcNAc(b1-4)[Fuc(a1-6)]GlcNAc
- assay-info: glycan array binding signal (z-score within array); higher = stronger binding
- condition-details: glycan notation: IUPAC condensed, linker removed
This excerpt belongs to a sample that is enriched for the strongest signals.
Numbers only.

Previously resolved entries follow.
binder	glycan array binding signal (z-score)
LlpA (Arthrobacter sp) (protein) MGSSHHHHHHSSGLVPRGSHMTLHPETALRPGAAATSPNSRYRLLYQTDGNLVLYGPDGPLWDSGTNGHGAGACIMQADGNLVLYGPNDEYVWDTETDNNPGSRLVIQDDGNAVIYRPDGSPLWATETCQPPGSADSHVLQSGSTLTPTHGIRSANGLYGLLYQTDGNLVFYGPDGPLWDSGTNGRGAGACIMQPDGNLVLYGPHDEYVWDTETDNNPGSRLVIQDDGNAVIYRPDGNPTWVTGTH	0.644
HPA (Helix pomatia), Q2F1K8 (protein) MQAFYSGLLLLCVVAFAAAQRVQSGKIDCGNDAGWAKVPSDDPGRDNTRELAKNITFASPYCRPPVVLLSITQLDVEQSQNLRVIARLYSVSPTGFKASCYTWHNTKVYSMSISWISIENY	0.257

Continue with the binder presented below.
Recorded glycan array binding signal (z-score) for HPA (Helix pomatia), Q575S3 (protein) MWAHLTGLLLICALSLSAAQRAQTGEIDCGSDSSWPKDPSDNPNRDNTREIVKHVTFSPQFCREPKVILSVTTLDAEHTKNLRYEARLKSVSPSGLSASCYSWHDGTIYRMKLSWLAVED , please?
-0.25
